Here, each record is paired with measured IC50 data.
experimental_target: PI3Kα (p110α/p85α)(h) (Homo sapiens, UniProt P42336)
Sequence (P42336 whole entry): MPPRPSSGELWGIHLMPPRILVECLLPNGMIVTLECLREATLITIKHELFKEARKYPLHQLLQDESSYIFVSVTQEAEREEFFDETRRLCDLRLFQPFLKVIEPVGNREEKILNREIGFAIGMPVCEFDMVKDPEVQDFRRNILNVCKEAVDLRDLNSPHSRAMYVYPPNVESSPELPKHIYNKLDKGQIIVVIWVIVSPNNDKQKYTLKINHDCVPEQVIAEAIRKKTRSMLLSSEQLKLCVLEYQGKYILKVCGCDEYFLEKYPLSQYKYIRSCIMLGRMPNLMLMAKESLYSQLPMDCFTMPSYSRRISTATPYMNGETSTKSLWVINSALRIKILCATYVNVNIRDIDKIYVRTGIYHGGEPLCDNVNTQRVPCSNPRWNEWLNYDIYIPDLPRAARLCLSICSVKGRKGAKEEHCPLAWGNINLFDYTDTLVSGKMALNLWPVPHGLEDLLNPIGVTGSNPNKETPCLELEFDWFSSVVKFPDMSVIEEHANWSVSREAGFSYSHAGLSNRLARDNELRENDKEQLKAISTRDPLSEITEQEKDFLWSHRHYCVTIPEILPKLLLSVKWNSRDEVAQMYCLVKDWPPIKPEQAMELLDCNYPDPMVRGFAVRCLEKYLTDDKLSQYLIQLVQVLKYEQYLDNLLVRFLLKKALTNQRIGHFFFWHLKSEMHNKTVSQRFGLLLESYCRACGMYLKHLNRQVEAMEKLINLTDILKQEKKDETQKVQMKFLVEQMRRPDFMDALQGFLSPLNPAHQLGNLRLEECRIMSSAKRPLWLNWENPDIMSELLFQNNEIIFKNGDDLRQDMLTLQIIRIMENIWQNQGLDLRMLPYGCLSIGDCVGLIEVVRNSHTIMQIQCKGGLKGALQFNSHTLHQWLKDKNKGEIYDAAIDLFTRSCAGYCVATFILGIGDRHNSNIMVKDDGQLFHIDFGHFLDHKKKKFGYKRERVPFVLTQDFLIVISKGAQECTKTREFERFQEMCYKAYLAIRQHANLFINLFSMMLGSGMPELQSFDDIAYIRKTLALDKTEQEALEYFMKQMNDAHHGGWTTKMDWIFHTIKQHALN
Sequence (P27986 whole entry partner): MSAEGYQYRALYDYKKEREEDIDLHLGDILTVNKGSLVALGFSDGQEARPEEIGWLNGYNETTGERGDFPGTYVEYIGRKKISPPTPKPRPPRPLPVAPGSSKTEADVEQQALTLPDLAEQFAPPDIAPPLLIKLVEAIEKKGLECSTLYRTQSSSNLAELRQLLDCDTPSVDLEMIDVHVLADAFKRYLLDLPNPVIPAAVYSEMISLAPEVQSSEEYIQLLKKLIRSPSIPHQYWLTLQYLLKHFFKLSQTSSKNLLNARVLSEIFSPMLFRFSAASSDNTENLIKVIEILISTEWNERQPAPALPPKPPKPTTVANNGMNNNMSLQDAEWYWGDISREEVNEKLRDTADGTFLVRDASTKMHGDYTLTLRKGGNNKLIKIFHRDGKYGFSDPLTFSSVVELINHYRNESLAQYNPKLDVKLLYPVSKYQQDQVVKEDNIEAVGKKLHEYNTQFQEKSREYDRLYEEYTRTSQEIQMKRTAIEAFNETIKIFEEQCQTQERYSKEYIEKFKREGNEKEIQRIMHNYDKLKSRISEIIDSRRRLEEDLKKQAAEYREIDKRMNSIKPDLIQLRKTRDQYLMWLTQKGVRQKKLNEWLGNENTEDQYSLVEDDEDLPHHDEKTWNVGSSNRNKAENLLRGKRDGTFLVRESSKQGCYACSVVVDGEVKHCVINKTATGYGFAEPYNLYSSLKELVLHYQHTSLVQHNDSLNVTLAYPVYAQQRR
procedure_text: Assay for phosphatidylinositol 3-kinase alpha (PI3Kα) activity, PI3K-HTRF kit
Format: biochemical
run_conditions: TR-FRET; enzyme 0.3625 μg/ml, 10 μM PIP2, 10 μM ATP

smiles_string	IC50, nM
COC(=O)c1cccc(C#Cc2cncc3cc(/C=C4\SC(=S)NC4=O)oc23)c1	1
O=C1NC(=O)/C(=C/c2cc3cncc(C(=O)NC4CCCCC4)c3o2)S1	31
Cc1cc(-c2cncc3cc(/C=C4\SC(=O)NC4=O)oc23)ccc1S(=O)(=O)NC(C)(C)C	11
COC(=O)c1cc(F)cc(-c2cncc3cc(/C=C4\SC(=S)NC4=O)oc23)c1	4

====

experimental_target: PI3Kγ (p120γ)(h) (Homo sapiens, UniProt P48736)
Sequence (P48736 whole entry): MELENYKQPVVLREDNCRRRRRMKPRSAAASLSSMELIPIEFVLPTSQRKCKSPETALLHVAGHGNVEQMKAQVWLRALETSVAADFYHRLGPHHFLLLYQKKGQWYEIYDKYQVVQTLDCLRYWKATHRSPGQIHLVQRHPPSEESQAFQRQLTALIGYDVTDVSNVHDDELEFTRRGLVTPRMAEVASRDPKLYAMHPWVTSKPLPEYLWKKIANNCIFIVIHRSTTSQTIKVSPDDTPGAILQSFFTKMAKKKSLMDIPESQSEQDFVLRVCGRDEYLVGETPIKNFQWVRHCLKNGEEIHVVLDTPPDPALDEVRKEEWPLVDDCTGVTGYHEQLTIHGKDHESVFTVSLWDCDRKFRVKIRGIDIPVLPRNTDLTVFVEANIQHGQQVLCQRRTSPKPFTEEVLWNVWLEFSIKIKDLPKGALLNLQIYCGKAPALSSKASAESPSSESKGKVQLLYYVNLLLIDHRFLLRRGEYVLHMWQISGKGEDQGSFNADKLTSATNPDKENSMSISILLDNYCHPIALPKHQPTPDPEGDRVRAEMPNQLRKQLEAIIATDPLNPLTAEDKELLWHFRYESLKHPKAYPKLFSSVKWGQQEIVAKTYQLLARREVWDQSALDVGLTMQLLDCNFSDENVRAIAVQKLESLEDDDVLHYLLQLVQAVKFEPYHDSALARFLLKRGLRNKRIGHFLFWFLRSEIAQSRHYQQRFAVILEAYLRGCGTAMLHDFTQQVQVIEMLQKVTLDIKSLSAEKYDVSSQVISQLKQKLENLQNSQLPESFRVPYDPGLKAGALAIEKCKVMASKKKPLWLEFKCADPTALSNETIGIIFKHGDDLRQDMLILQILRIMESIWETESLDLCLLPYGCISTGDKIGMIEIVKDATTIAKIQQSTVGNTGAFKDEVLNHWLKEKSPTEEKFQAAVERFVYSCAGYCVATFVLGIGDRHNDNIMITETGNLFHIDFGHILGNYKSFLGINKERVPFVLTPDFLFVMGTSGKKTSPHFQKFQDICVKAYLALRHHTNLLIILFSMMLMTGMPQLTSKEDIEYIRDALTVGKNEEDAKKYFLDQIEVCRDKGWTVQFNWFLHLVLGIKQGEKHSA
procedure_text: Assay for phosphatidylinositol 3-kinase gamma (PI3Kγ) activity, PI3K-HTRF kit
Assay type: biochemical
run_conditions: TR-FRET; enzyme 1.45 μg/ml, 10 μM PIP2, 10 μM ATP
The label 1 is reserved for IC50 strictly under 10 nM; 0 covers values equal to or above it.

molecule	experimental_target	classification
CSc1ccc(-c2cncc3cc(/C=C4\SC(=O)NC4=O)oc23)cn1 [Example 41]	PI3Kγ (p120γ)(h) (Homo sapiens, UniProt P48736)	0
COc1cc(-c2cncc3cc(/C=C4\SC(=S)NC4=O)oc23)cc(Cl)c1O [Example 217]	PI3Kγ (p120γ)(h) (Homo sapiens, UniProt P48736)	1
O=C1NC(=O)/C(=C/c2cc3cncc(-c4cccc(OCc5ccccc5)c4)c3o2)S1 [Example 6]	PI3Kγ (p120γ)(h) (Homo sapiens, UniProt P48736)	0
COc1ncc(-c2cncc3cc(/C=C4\SC(=S)NC4=O)oc23)cc1C [Example 225]	PI3Kγ (p120γ)(h) (Homo sapiens, UniProt P48736)	0
CN(C)S(=O)(=O)c1ccc(-c2cncc3cc(/C=C4\SC(=O)NC4=O)oc23)cc1F [Example 280]	PI3Kγ (p120γ)(h) (Homo sapiens, UniProt P48736)	0
O=C1NC(=O)/C(=C/c2cc3cncc(C#CC4CCCC4)c3o2)S1 [Example 435]	PI3Kγ (p120γ)(h) (Homo sapiens, UniProt P48736)	0

====

experimental_target: PI3Kγ (p120γ)(h) (Homo sapiens)
procedure_text: Assay for phosphatidylinositol 3-kinase gamma (PI3Kγ) activity, PI3K-HTRF kit
Assay type: biochemical
run_conditions: TR-FRET; enzyme 1.45 μg/ml, 10 μM PIP2, 10 μM ATP
# note: boundary value 10 nM maps to not met; IC50 below it maps to met

compound	classification
COc1ncc(-c2cncc3cc(/C=C4\SC(=S)NC4=O)oc23)cc1C#N [Example 328]	not met
O=C1NC(=O)/C(=C/c2cc3cncc(C#Cc4ccccc4)c3o2)S1 [Example 125]	not met
CN(C)S(=O)(=O)c1ccc(-c2cncc3cc(/C=C4\SC(=S)NC4=O)oc23)cc1F [Example 330]	not met
Cc1cc(-c2cncc3cc(/C=C4\SC(=O)NC4=O)oc23)ccc1S(=O)(=O)N1CCOCC1 [Example 307]	not met
COc1ccccc1NC(=O)c1cncc2cc(/C=C3\SC(=O)NC3=O)oc12 [Example 412]	not met
COc1ccc(C#Cc2cncc3cc(/C=C4\SC(=O)NC4=O)oc23)cc1 [Example 437]	met
CCOC(C#Cc1cncc2cc(/C=C3\SC(=S)NC3=O)oc12)OCC [Example 483]	not met
O=C1NC(=O)/C(=C/c2cc3cncc(-c4cccc(CN5CCCCC5)c4)c3o2)S1 [Example 132]	not met
Cc1ccccc1C#Cc1cncc2cc(/C=C3\SC(=S)NC3=O)oc12 [Example 498]	met
O=C1NC(=O)/C(=C/c2cc3cncc(-c4ccc(S(=O)(=O)NCCO)cc4)c3o2)S1 [Example 263]	not met
CCOc1ccc(-c2cncc3cc(/C=C4\SC(=O)NC4=O)oc23)cc1C(F)(F)F [Example 94]	met
Cc1cc(-c2cncc3cc(/C=C4\SC(=O)NC4=O)oc23)ccc1S(=O)(=O)NC(C)(C)C [Example 310]	not met

====

experimental_target: PI3Kα (p110α/p85α)(h) (Homo sapiens)
procedure_text: Assay for phosphatidylinositol 3-kinase alpha (PI3Kα) activity, PI3K-HTRF kit
Assay type: biochemical
run_conditions: TR-FRET; enzyme 0.3625 μg/ml, 10 μM PIP2, 10 μM ATP
# maps each entry to its IC50
measurement_name: IC50

compound	assay_value
Nc1ccc(-c2cncc3cc(/C=C4\SC(=S)NC4=O)oc23)cc1C(F)(F)F [Example 361]	41 nM
COC(=O)c1ccccc1C#Cc1cncc2cc(/C=C3\SC(=S)NC3=O)oc12 [Example 558]	3 nM
CSc1ccc(-c2cncc3cc(/C=C4\SC(=O)NC4=O)oc23)cc1 [Example 23]	43 nM
COc1ccc(-c2cncc3cc(/C=C4\SC(=S)NC4=O)oc23)cc1F [Example 161]	13 nM
O=C1NC(=O)/C(=C/c2cc3cncc(-c4cccc(NS(=O)(=O)c5ccccc5)c4)c3o2)S1 [Example 141]	21 nM
COc1cc(-c2cncc3cc(/C=C4\SC(=S)NC4=O)oc23)cc(Cl)c1O [Example 217]	1 nM
O=C1NC(=O)/C(=C/c2cc3cncc(C#Cc4ccc(Cl)cc4)c3o2)S1 [Example 541]	5 nM
CN(C)S(=O)(=O)c1ccc(C#Cc2cncc3cc(/C=C4\SC(=S)NC4=O)oc23)cc1 [Example 571]	1 nM
COc1ccccc1C#Cc1cncc2cc(/C=C3\SC(=S)NC3=O)oc12 [Example 486]	4 nM
O=C1NC(=S)S/C1=C\c1cc2cncc(C#Cc3ccsc3)c2o1 [Example 555]	5 nM
O=C1NC(=O)/C(=C/c2cc3cncc(-c4ccc(S(=O)(=O)N5CCCCC5)cc4)c3o2)S1 [Example 262]	33 nM
CS(=O)(=O)c1c(F)cc(-c2cncc3cc(/C=C4\SC(=S)NC4=O)oc23)cc1F [Example 332]	10 nM
COc1ccc(-c2cncc3cc(/C=C4\SC(=O)NC4=O)oc23)cn1 [Example 30]	40 nM
O=C1NC(=S)S/C1=C\c1cc2cncc(C(=O)NCc3ccc(Cl)cc3)c2o1 [Example 427]	62 nM
CNS(=O)(=O)c1ccc(-c2cncc3cc(/C=C4\SC(=O)NC4=O)oc23)cc1F [Example 279]	40 nM
O=C1NC(=S)S/C1=C\c1cc2cncc(-c3ccc4c(c3)CCO4)c2o1 [Example 187]	5 nM
COc1ccc(C#Cc2cncc3cc(/C=C4\SC(=S)NC4=O)oc23)cc1OC [Example 512]	2 nM
COc1ccc(-c2cncc3cc(/C=C4\SC(=O)NC4=O)oc23)cc1C(F)(F)F [Example 90]	3 nM
